Listing of entries alongside the reported IC50.
Target: Recombinant (1-346) HPK1 (h) (Homo sapiens, UniProt Q92918)
Construct: Recombinant (1-346) HPK1 (h) is incubated with 8 mM MOPS pH 7.0
Experiment: HPK1 human STE kinase enzymatic radiometric assay
Format: biochemical
Details: read-out: HPK1 IC50 nM Range

Recorded IC50, per entry:
compound | testedOn | measurementType | assayValue
Cc1nc2cc(-c3nc(-c4ccc(C5CCOCC5)c(CN5CCC[C@@H]5C)c4)c(F)nc3N)cc(F)c2c(=O)[nH]1 [Example I-219] | Recombinant (1-346) HPK1 (h) (Homo sapiens, UniProt Q92918) | IC50 | 101 to 1000 nM
COC1CCN(Cc2cc(-c3nc(-c4ccc5c(c4)CCNC5=O)c(N)nc3F)ccc2C2CCOCC2)CC1 [Example I-131] | Recombinant (1-346) HPK1 (h) (Homo sapiens, UniProt Q92918) | IC50 | 11 to 100 nM

Noted IC50 for C[C@@H]1CN(c2ccc(-c3nc(-c4cc5c(cc4F)C(=O)NCC5)c(N)nc3F)cc2CN(C)C)CCO1 [Example I-173] , tested on Recombinant (1-346) HPK1 (h) (Homo sapiens, UniProt Q92918): 0.1 to 10 nM

Noted IC50 for C[C@H]1CN(c2ccc(-c3nc(-c4cc5c(cc4F)C(=O)NCC5)c(N)nc3F)cc2CN(C)C)CCO1 [Example I-212] , tested on Recombinant (1-346) HPK1 (h) (Homo sapiens, UniProt Q92918): 0.1 to 10 nM

###

Biological target: Recombinant (1-346) HPK1 (h) (Homo sapiens, UniProt Q92918)
Construct: Recombinant (1-346) HPK1 (h) is incubated with 8 mM MOPS pH 7.0
Sequence (Q92918 1-346): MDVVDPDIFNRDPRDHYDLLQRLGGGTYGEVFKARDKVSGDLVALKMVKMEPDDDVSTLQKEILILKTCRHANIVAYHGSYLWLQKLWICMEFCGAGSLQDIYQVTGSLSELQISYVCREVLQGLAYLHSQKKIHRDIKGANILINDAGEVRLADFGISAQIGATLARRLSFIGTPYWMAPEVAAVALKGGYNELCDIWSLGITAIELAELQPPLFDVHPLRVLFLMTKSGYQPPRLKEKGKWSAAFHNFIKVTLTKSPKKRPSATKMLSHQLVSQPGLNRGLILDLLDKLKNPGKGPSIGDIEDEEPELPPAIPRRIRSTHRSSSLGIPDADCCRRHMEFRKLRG
Assay: HPK1 human STE kinase enzymatic radiometric assay
Format: biochemical
Conditions: read-out: HPK1 IC50 nM Range
Listing of entries alongside the reported IC50.

molecule | testedOn | assayValue
Cc1nc2cc(-c3nc(-c4ccc(N5CCN(CCCC(F)F)CC5)cc4)c(F)nc3N)ccc2c(=O)[nH]1 | Recombinant (1-346) HPK1 (h) (Homo sapiens, UniProt Q92918) | 11 to 100 nM
CN(C)[C@@H]1CCOc2ccc(-c3nc(-c4cc(F)c5c(c4)CCNC5=O)c(N)nc3F)cc21 | Recombinant (1-346) HPK1 (h) (Homo sapiens, UniProt Q92918) | 11 to 100 nM
CN(C)Cc1cc(-c2nc(-c3ccc4c(=O)[nH]cc(F)c4c3)c(N)nc2F)c(F)c(F)c1N1CCOCC1 | Recombinant (1-346) HPK1 (h) (Homo sapiens, UniProt Q92918) | 11 to 100 nM

What the record says about Cc1nc2cc(-c3nc(-c4ccc(N5CCN(C(C)C)CC5)cc4)c(F)nc3N)c(F)cc2c(=O)[nH]1 : IC50 is 0.1 to 10 nM

What the record says about CN(C)Cc1cc(-c2nc(-c3cc(F)c4c(c3)CCNC4=O)c(N)nc2F)ccc1F : IC50 is 101 to 1000 nM

What the record says about Nc1nc(F)c(-c2ccc(N3CCOCC3)c(CN3CCC3)c2)nc1-c1ccc2c(=O)[nH]cc(F)c2c1 : IC50 is 0.1 to 10 nM

What the record says about Nc1nc(F)c(-c2ccc(OC3CCOCC3)c(CN3CCC3)c2)nc1-c1ccc2c(c1)CCNC2=O : IC50 is 11 to 100 nM

What the record says about Cc1[nH]c(=O)c2c(F)cc(-c3nc(-c4ccc(C5CCOCC5)c(CN(C)C)c4)c(F)nc3N)cc2c1Cl : IC50 is 0.1 to 10 nM

What the record says about Cc1cc2cc(-c3nc(-c4ccc(N5CCOCC5)c(CN(C)C)c4)c(F)nc3N)c(F)cc2c(=O)[nH]1 : IC50 is 0.1 to 10 nM

What the record says about CC(C1CC1)N1CCN(c2ccc(-c3nc(-c4cc(F)c5c(c4)CCNC5=O)c(N)nc3F)cc2)CC1 (single isomer, unassigned) [Example I-30] : IC50 is 0.1 to 10 nM

###

Molecular target: Recombinant (1-346) HPK1 (h) (Homo sapiens, UniProt Q92918)
Construct: Recombinant (1-346) HPK1 (h) is incubated with 8 mM MOPS pH 7.0
Experiment: HPK1 human STE kinase enzymatic radiometric assay
Assay type: biochemical
Conditions: read-out: HPK1 IC50 nM Range
Listing of entries alongside the reported IC50.

Recorded IC50, per entry:
compound | assayValue
Cc1nc2cc(-c3nc(-c4ccc(N5CC6(CN(C)CCO6)C5)cc4)c(F)nc3N)ccc2c(=O)[nH]1 [Example I-130] | 101 to 1000 nM
CN(C)Cc1c(N2CCOCC2)ccc(-c2nc(-c3ccc4c(c3)CCNC4=O)c(N)nc2F)c1F [Example I-240] | 11 to 100 nM
Cc1[nH]c(=O)c2c(F)cc(-c3nc(-c4ccc(N5CCN(CC6CC6)CC5)cc4)c(F)nc3N)cc2c1Cl [Example I-107] | 0.1 to 10 nM
Nc1nc(F)c(-c2ccc(N3CCN(C4CCC4)CC3)cc2)nc1-c1cc(F)c2c(c1)CCNC2=O [Example I-47] | 0.1 to 10 nM
Cc1[nH]c(=O)c2ccc(-c3nc(-c4ccc(N5CC6(CN(C)CCO6)C5)cc4)c(F)nc3N)cc2c1F [Example I-123] | 11 to 100 nM
CN(C)Cc1cc(-c2nc(-c3cc4c(F)c[nH]c(=O)c4cc3F)c(N)nc2F)ccc1C1CCOCC1 [Example I-143] | 0.1 to 10 nM

Below: the item to evaluate.
What the record says about Cc1c[nH]c(=O)c2ccc(-c3nc(-c4cccc(CN(C)C)c4)c(F)nc3N)cc12 [Example I-280] : IC50 is 11 to 100 nM

###

Listing of entries alongside the reported IC50.
Target: Recombinant (1-346) HPK1 (h) (Homo sapiens, UniProt Q92918)
Construct: Recombinant (1-346) HPK1 (h) is incubated with 8 mM MOPS pH 7.0
Sequence (Q92918 1-346): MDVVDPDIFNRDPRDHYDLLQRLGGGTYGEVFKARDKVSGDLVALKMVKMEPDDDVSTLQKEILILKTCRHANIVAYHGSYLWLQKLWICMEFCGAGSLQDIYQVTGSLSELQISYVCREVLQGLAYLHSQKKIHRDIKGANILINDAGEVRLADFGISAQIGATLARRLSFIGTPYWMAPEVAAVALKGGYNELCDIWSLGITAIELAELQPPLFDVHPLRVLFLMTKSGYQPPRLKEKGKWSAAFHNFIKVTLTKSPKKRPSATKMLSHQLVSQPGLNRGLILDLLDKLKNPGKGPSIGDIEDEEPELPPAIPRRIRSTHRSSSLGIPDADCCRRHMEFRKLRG
Assay: HPK1 human STE kinase enzymatic radiometric assay
Assay type: biochemical
Conditions: read-out: HPK1 IC50 nM Range

molecule | IC50
Cc1c[nH]c(=O)c2c(F)cc(-c3nc(-c4ccc(C5CCOCC5)c(CN(C)C)c4)c(F)nc3N)cc12 [Example I-167] | 0.1 to 10 nM
Nc1nc(F)c(-c2ccc(N3CCN(CCCC(F)F)CC3)cc2)nc1-c1ccc2c(c1)CCNC2=O [Example I-68] | 0.1 to 10 nM
CC(C)N1CCN(c2ccc(-c3nc(-c4cc5cc[nH]c(=O)c5cc4F)c(N)nc3F)cc2)CC1 [Example I-22] | 0.1 to 10 nM

Below: the item to evaluate.
What the record says about CN(C)Cc1cc(-c2nc(-c3ccc4c(c3)CCNC4=O)c(N)nc2F)ccc1C1CCOCC1 [Example I-59] : IC50 is 0.1 to 10 nM

###

Target: Recombinant (1-346) HPK1 (h) (Homo sapiens, UniProt Q92918)
Construct: Recombinant (1-346) HPK1 (h) is incubated with 8 mM MOPS pH 7.0
Assay: HPK1 human STE kinase enzymatic radiometric assay
Type: biochemical
Details: read-out: HPK1 IC50 nM Range
measurementType: IC50

Recorded IC50, per entry:
smilesCode | assayValue
Cc1[nH]c(=O)c2c(F)cc(-c3nc(-c4ccc(N5CCN(C(C)C)CC5)cc4)c(F)nc3N)cc2c1F | 0.1 to 10 nM
Nc1nc(F)c(-c2ccc(N3CCOCC3)c(CN3CCC3)c2F)nc1-c1cc(F)c2c(c1)CCNC2=O | 11 to 100 nM
Nc1nc(F)c(-c2ccc(N3CCOCC3)cc2)nc1-c1cc2c(cc1F)C(=O)NCC2 | 0.1 to 10 nM

What the record says about CN(C)Cc1cc(-c2nc(-c3cc(F)c4c(c3)CCNC4=O)c(N)nc2F)ccc1C1CCOCC1 : IC50 is 0.1 to 10 nM

What the record says about CC(C)N1CCN(c2ccc(-c3nc(-c4ccc5c(c4)CCNC5=O)c(N)nc3F)cc2)[C@H](C)C1 : IC50 is 0.1 to 10 nM

What the record says about CC(C)N1CCN(c2ccc(-c3nc(-c4cc(F)c5c(=O)[nH]cc(Cl)c5c4)c(N)nc3F)cc2)CC1 : IC50 is 0.1 to 10 nM

What the record says about CC(C)N1CCN(c2ccc(-c3nc(-c4ccc5c(c4)CCNC5=O)c(N)nc3Cl)cc2)CC1 : IC50 is 11 to 100 nM

What the record says about Cc1cc(-c2nc(-c3ccc4c(=O)[nH]cc(C)c4c3)c(N)nc2F)cc2c1CCN(C)C2 : IC50 is 11 to 100 nM

What the record says about CCN(C)Cc1cc(-c2nc(-c3cc4c(cc3F)C(=O)NCC4)c(N)nc2F)cc(C)c1OC : IC50 is 0.1 to 10 nM

What the record says about Nc1nc(F)c(-c2ccc(N3CCOCC3)c(CN3CCCC3)c2)nc1-c1cc(F)c2c(c1)CCNC2=O : IC50 is 0.1 to 10 nM

What the record says about Nc1nc(F)c(-c2ccc(N3CCOCC3)c(CN3CCCC3)c2)nc1-c1ccc2c(=O)[nH]cc(F)c2c1 : IC50 is 0.1 to 10 nM

What the record says about Cc1nc2cc(-c3nc(-c4ccc(N5CCN(C6CCC6)CC5)cc4)c(F)nc3N)ccc2c(=O)[nH]1 : IC50 is 11 to 100 nM

What the record says about Nc1nc(F)c(-c2ccc(N3CCOCC3)c(CN3CCCCC3)c2)nc1-c1ccc2c(c1)CCNC2=O : IC50 is 11 to 100 nM

What the record says about Cc1[nH]c(=O)c2ccc(-c3nc(-c4ccc(C5CCOCC5)c(CN(C)C)c4)c(F)nc3N)cc2c1F : IC50 is 0.1 to 10 nM

What the record says about Cc1[nH]c(=O)c2ccc(-c3nc(-c4ccc(N5CCN(CC6CC6)CC5)cc4)c(F)nc3N)cc2c1Cl : IC50 is 0.1 to 10 nM
